Some compounds, each annotated with its measured IC50.
Target: glucan synthase (Candida albicans, UniProt O13428)
Construct: glucan synthase sources (2 μL permeabilized PM503 cells, or 3 μL membrane preparations from either PM503, BWP17, or ND158); endogenous in cells; host or cells: C. albicans strain BWP17, 100,000 g membrane fraction
Sequence (O13428 1-1897): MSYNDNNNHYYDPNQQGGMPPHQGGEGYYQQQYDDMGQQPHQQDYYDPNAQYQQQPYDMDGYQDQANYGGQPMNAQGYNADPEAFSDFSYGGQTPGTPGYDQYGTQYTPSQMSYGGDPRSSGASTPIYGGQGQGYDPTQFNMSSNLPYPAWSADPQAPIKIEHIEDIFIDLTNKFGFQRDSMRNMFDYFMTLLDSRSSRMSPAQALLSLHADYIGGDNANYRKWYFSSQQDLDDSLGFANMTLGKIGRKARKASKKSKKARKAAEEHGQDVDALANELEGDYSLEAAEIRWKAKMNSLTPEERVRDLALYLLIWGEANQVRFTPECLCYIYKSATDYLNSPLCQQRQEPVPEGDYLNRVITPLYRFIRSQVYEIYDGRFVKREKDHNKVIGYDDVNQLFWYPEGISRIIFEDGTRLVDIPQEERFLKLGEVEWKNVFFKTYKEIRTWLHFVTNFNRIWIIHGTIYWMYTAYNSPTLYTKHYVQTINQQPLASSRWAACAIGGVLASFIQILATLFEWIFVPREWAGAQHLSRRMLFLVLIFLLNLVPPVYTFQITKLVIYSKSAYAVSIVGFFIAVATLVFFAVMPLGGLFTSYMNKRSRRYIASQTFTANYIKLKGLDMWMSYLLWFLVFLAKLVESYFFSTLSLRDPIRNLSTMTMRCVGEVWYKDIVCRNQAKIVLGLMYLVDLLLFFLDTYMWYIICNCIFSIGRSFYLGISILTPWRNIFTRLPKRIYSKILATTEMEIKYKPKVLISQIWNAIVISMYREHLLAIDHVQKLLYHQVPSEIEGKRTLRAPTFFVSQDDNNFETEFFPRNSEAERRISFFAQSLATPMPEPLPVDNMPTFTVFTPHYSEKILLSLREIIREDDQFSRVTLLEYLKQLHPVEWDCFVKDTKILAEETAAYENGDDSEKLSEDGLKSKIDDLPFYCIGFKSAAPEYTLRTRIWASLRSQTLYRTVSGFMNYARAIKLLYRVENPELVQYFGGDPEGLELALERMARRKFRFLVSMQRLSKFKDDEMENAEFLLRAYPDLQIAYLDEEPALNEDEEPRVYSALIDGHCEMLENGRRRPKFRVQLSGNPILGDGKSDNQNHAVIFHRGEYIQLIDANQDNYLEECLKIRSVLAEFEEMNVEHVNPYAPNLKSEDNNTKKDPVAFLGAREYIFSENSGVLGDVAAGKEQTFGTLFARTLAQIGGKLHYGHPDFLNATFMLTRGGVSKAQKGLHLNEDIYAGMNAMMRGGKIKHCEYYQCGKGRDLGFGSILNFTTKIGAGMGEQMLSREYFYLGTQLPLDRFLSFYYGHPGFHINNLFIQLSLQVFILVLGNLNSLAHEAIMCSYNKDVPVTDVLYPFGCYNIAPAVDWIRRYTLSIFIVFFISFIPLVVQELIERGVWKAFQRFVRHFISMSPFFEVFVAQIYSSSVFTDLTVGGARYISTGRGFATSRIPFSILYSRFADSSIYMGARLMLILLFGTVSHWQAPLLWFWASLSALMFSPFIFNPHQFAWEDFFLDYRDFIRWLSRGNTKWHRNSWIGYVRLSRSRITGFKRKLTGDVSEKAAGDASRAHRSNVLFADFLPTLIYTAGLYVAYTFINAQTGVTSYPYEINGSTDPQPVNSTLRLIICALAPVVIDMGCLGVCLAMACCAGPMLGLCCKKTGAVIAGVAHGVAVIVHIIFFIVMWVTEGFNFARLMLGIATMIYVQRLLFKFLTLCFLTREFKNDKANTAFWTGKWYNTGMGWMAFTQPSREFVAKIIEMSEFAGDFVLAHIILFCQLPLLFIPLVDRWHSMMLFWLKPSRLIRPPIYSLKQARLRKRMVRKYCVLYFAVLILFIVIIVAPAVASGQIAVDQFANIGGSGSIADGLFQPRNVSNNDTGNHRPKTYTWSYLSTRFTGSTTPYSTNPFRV
Sequence (O42825 1-195 partner limits assumed): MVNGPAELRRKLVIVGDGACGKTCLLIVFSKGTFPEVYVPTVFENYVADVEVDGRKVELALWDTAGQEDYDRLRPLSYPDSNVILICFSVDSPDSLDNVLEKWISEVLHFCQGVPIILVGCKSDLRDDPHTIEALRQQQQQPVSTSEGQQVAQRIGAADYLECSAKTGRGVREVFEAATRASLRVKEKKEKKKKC
Experiment: β(1,3) glucan synthase assay, C. albicans BWP17 membrane preparation (IC50)
Format: biochemical
Conditions: in vitro fungal enzyme activity assay, read-out: IC50 (μg/mL) Candida albicans (converted)
Metric Name: IC50 (µM)

> print(dat)
                                   compound  experimental.result
1  CC1(COc2c(N3CCN(S(=O)(=O)Cc4cc(N)ccc4F)CC3)cnn(-c3cccc(Cl)c3)c2=O)CC1 [1904Z]                0.142
2  CC1(COc2c(N3CCN(S(=O)(=O)Cc4cccc(N)c4)CC3)cnn(-c3cc(F)cc(F)c3)c2=O)CC1 [1529Z-40]                0.055
3  O=c1c(N2CCCCC2)c(N2CCN(S(=O)(=O)Cc3ccccc3)CC2)cnn1-c1ccc(F)cc1 [61Z]                 2.54
4  CC(C)NC(=O)N1CCN(c2cnn(-c3cccc(F)c3)c(=O)c2OC2Cc3ccccc3C2)CC1 [197Z]                 3.87
5  CC(C)(C)COc1c(N2CCN(S(=O)(=O)Cc3cccc(N)c3)CC2)cnn(-c2cc(F)cc(F)c2)c1=O [1529Z-190]                0.219
6  CNc1cccc(CS(=O)(=O)N2CCN(c3cnn(-c4cccc(Cl)c4)c(=O)c3OCC3(C)CC3)CC2)c1 [1969Z]                0.215
7  O=c1c(OC2CCCC2)c(N2CCN(S(=O)(=O)Cc3cc(Cl)cc(Cl)c3)CC2)cnn1-c1cccc(Cl)c1 [553Z]                0.351

====

Molecular target: glucan synthase (Saccharomyces cerevisiae)
Construct: glucan synthase sources (2 μL permeabilized PM503 cells, or 3 μL membrane preparations from either PM503, BWP17, or ND158); endogenous in cells
Sequence (P06780 1-206): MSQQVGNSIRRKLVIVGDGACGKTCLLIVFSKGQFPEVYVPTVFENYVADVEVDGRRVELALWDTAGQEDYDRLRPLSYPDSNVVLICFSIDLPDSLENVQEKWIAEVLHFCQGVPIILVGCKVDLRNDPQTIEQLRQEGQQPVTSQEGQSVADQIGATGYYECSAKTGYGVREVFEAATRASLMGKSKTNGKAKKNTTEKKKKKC
Sequence (P38631 whole entry): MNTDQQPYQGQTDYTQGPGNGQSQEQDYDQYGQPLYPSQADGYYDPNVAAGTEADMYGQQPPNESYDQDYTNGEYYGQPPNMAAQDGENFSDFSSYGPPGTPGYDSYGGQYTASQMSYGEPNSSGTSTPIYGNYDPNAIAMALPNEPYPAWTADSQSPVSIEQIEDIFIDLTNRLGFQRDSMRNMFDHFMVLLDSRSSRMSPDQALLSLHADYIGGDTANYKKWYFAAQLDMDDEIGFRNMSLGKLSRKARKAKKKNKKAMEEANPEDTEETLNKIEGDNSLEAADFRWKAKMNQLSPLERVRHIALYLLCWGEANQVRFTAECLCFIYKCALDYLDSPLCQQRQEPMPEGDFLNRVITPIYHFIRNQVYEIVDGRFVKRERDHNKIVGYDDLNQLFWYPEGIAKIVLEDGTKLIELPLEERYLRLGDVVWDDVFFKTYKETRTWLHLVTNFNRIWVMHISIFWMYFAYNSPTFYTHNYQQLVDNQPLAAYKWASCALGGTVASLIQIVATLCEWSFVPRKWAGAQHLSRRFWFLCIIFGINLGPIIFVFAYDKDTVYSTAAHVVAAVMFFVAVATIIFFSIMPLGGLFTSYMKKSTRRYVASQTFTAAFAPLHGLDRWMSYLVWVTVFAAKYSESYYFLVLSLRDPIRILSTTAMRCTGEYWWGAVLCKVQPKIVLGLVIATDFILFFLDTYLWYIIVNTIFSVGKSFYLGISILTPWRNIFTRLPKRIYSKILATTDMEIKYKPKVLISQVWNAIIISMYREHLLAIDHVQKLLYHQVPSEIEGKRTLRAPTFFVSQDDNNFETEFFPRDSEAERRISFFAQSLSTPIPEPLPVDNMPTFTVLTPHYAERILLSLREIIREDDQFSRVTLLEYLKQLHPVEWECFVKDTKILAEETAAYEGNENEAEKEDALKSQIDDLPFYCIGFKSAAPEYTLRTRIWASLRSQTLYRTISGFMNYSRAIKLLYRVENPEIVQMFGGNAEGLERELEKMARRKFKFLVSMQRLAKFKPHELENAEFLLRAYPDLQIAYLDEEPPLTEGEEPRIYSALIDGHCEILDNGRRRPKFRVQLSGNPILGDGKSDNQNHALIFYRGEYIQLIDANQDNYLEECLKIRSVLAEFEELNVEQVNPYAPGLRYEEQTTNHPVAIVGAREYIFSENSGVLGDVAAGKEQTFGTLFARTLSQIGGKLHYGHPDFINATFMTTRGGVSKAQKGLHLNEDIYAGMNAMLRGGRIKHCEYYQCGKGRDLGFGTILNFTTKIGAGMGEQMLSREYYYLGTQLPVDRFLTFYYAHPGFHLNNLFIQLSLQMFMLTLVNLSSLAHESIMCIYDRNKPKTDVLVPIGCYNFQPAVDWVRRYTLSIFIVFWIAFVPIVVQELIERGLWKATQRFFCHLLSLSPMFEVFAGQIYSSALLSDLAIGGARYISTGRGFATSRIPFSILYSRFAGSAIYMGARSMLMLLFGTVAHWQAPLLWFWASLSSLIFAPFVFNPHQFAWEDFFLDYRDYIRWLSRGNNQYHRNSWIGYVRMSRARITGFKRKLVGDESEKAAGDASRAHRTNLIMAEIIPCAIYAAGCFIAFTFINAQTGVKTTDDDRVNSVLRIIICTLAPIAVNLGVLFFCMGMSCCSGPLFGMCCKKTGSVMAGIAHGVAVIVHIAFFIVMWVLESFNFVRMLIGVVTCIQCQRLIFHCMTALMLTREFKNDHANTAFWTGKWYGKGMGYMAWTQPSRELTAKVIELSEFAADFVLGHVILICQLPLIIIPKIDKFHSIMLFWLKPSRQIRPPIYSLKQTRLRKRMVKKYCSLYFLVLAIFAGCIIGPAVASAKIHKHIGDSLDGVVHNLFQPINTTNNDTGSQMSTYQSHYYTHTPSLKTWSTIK
Test: β(1,3) glucan synthase assay, S. cerevisiae PM503 permeabilized cells or membrane preparation (IC50)
Method: β(1,3) Glucan Synthase Assay: 1. Preparation of Permeabilized Saccharomyces cerevisiae Cells. Permeabilization of yeast cells was performed according to Crotti et al. (Analytical Biochemistry, 292, 8-16, 2001) with some modifications. A 10 ml-starter culture of the S. cerevisiae strain in YPD medium (1% yeast extract, 2% bacto-peptone, 2% dextrose) with OD600=3-4 was used to inoculate 1 liter of YPD. The culture was grown at 30° C. until OD600=0-0.8. […]
IC50 strictly less than 100 nM = MET. Otherwise NOT MET.

> print(dat)
                                   compound  qualitative.label
1  CC(C)(C)COc1c(N2CCN(S(=O)(=O)Cc3ccc(N)cc3)CC2)cnn(-c2cc(F)cc(F)c2)c1=O [1529Z-174]            NOT MET
2  O=c1c(OCc2cccc(F)c2)c(N2CCN(S(=O)(=O)Cc3ccccc3)CC2)cnn1-c1cc(F)cc(F)c1 [1529Z-150]                MET
3  CCOCCOc1c(N2CCN(c3ncc([N+](=O)[O-])s3)CC2)cnn(-c2cccc(C)c2)c1=O [240Z]            NOT MET
4  CC1(COc2c(N3CCN(S(=O)(=O)Cc4ccc5ocnc5c4)CC3)cnn(-c3cc(F)cc(F)c3)c2=O)CC1                MET
5  CC1(COc2c(N3CCN(S(=O)(=O)Cc4cccnc4N)CC3)cnn(-c3cccc(Cl)c3)c2=O)CC1 [Compound 1574Zr]            NOT MET
